Test system: CCRF-CEM leukemia
Test: NCI-60 one-dose screen, 48 h
Settings: 10 µM unless noted
The panel holds about 83,000 compounds, 20% with a hit somewhere; the sample as a whole holds those more often. Activity calls are given as the source filed them. The calls were made as follows: active = growth percent below 10; inactive = the rest.
Outcomes you can answer with include only these: active, inactive

Prompt: I would be grateful if you could indicate the recorded call for Cc1cccc(CN(Nc2ccccc2)c2ccccc2)n1 .
Response: inactive

Prompt: I would be grateful if you could indicate the recorded call for COc1cccc(C(=O)Nc2cccc(NC(=O)c3ccccn3)c2)c1 .
Response: inactive

Prompt: I would be grateful if you could indicate the recorded call for Nc1ncc(-c2ccc3ncnc(N4CCc5cc(F)c(Cl)cc54)c3c2)cn1 .
Response: inactive

Prompt: I would be grateful if you could indicate the recorded call for COc1ccc(C2=NN3C(C2)c2cc(Br)ccc2OC3c2ccncc2)cc1 (stereo unspecified) .
Response: inactive

Prompt: I would be grateful if you could indicate the recorded call for COc1ccc(Nc2nc(Nc3cc(C)[nH]n3)c3cc(OC)c(OC)cc3n2)cc1 .
Response: active

Prompt: I would be grateful if you could indicate the recorded call for CNC(=O)c1cc(Oc2ccc3nc(NC(=O)Nc4ccc(F)cc4F)sc3c2)ccn1 .
Response: inactive

###

Measured growth, listed per entry for reference.
Tested on: OVCAR-5 ovarian
Assay: NCI-60 one-dose screen, 48 h (100 = growth as untreated, 0 = no growth, -100 = all killed)
Conditions: 10 µM unless noted
The panel holds about 83,000 compounds, 20% with a hit somewhere; the sample as a whole holds those more often. The source made the active and inactive calls. The calls were made as follows: active = growth percent below 10; inactive = the rest.

Prompt: # growth lookup, item Cc1[nH]c(C(=O)Nc2ccc(C(N)=O)cc2OC(C)C)c(Cl)c1Cl
Response: 98.3% (inactive)

Prompt: # growth lookup, item COc1cc(C)cc(-c2c(-c3cc(N4CC(O)C4)nc(-c4cccnc4)n3)cnn2C)c1
Response: 99.9% (inactive)

Prompt: # growth lookup, item CCCCCCCCOC(=O)c1c(C)[nH]c(/C=C2\N=C(c3ccc[nH]3)C=C2OC)c1C
Response: 15.2% (inactive)

Prompt: # growth lookup, item Oc1ccc(Cc2ccc(O)c3ncccc23)c2cccnc12
Response: 21.6% (inactive)

Prompt: # growth lookup, item COC1=C(OC)C(=O)C(CCCCCCCCCCO)=C(C)C1=O
Response: 103% (inactive)

Prompt: # growth lookup, item C=C(C)[C@@H]1CC[C@]2(COCCCNCCCN)CC[C@]3(C)[C@H](CC[C@@H]4[C@@]5(C)CC[C@H](OCCCN)C(C)(C)[C@@H]5CC[C@]43C)[C@@H]12
Response: -49% (active)

Prompt: # growth lookup, item [2H]C([2H])([2H])Oc1ccc(/C=C/C(=O)/C=C(O)/C=C/c2ccc(OC([2H])([2H])[2H])c(OC([2H])([2H])[2H])c2)cc1OC([2H])([2H])[2H]
Response: 71.6% (inactive)

Prompt: # growth lookup, item Nc1n[nH]c2cccc(C#Cc3cccc(C(=O)Nc4ccc(Cl)c(C(F)(F)F)c4)c3)c12
Response: 43.4% (inactive)

Prompt: # growth lookup, item O=C(CN1C(=O)c2ccccc2S1(=O)=O)Nc1nc(-c2cc3ccccc3oc2=O)cs1
Response: 106% (inactive)

###

Test system: SF-295 CNS
Experiment: NCI-60 one-dose screen, 48 h (100 = growth as untreated, 0 = no growth, -100 = all killed)
Conditions: 10 µM unless noted
About 83,000 compounds went through this panel and 20% of them were active in at least one assay; those are over-represented in the sample as a whole.
Measured metric: growth (%)
Express the result in % but write the number alone.

Below: 8 compounds and their reported growth.
compound=O=C(O)/C=C/c1cn(-c2ccccc2)nc1-c1ccc(F)cc1 endpoint_result=87.7
compound="O=CN1N=C(c2cccc(Nc3ccncc3)c2)CC1c1ccc2c(c1)OCO2 (stereo unspecified)" endpoint_result=91.9
compound="CC1=C([Se]CC(OC(=O)[C@@H](CO)NC(=O)OC(C)(C)C)C(=O)NCCCCCC(=O)OCc2ccccc2)C(=O)c2ccccc2C1=O (stereo partly specified)" endpoint_result=-38.4
compound=COc1cccc(-c2cc(-c3ccc(Nc4nc(Nc5ccc(Cl)cc5)nc(Nc5ccc(Cl)cc5)n4)cc3)nc(N)c2C#N)c1 endpoint_result=83.2
compound=COc1cc2ncnc(Nc3ccc(S(=O)(=O)Nc4cc(C)on4)cc3)c2cc1OCCCN1CCOCC1 endpoint_result=97.7
compound="CCCCC#Cc1c(I)n(C2OC(CO[Si](C)(C)C(C)(C)C)C3OC(C)(C)OC32)c(=O)[nH]c1=O (stereo unspecified)" endpoint_result=113
compound="C#CCOc1ccc(C2=NN(CCCC)C3N=C(Cl)c4ncn(CCCC)c4N23)cc1OCC#C (stereo unspecified)" endpoint_result=88.4
compound=O=C(Nc1ccc(Cl)cc1)C1=NCCCCN1 endpoint_result=93.4

Prompt: # growth lookup, item CNC1=C(Br)C(=O)c2c(C(=O)OC)c(C)nc(C)c2C1=O
Response: 78.3

Prompt: # growth lookup, item Cc1c(CC(=O)Nc2ccccc2)nnn1-c1ccccc1
Response: 109

Prompt: # growth lookup, item CC(CN)[C@@H]1CC[C@]2(CO)CC[C@]3(C)[C@H](CC[C@@H]4[C@@]5(C)CCC(NCCO)C(C)(C)[C@@H]5CC[C@]43C)[C@@H]12 (stereo partly specified)
Response: 70.9

###

Tested on: A549/ATCC NSCLC
Test: NCI-60 one-dose screen, 48 h (100 = growth as untreated, 0 = no growth, -100 = all killed)
Details: 10 µM unless noted
This is part of a sample that, as a whole, favours compounds with a hit. Of some 83,000 tested, about 20% had one in any assay.
Measured growth, listed per entry for reference.
Express the result in % but write the number alone.

Below: 5 compounds and their reported growth.
compound=CCN1CCN(c2cc(C(=O)Nc3cccc(Nc4ccc5c(OC)cccc5n4)c3)cc(C(F)(F)F)c2)CC1 unit_symbol=% endpoint_result=21.1
compound=CN(C)C(=O)OCc1ccc2c(Cl)cc(Cl)c(O)c2n1 unit_symbol=% endpoint_result=25
compound=O=C1/C(=C/c2ccc(-c3ccc(Cl)cc3)o2)SC(=S)N1CCc1ccc(O)cc1 unit_symbol=% endpoint_result=17.6
compound="CO[C@H]1/C=C/O[C@@]2(C)Oc3c(C)c(O)c4c(O)c(c5c(nc6cc(C)ccn65)c4c3C2=O)NC(=O)/C(C)=C\\C=C\\[C@H](C)[C@H](O)[C@@H](C)C(O)[C@@H](C)[C@H](OC(C)=O)[C@@H]1C (stereo partly drawn)" unit_symbol=% endpoint_result=104
compound=C=C1C(=O)O[C@H]2[C@H]1CC/C(COC(=O)NCc1ccc(Cn3c(=O)sn(CCCC)c3=O)cc1)=C\CC[C@@]1(C)O[C@@H]21 unit_symbol=% endpoint_result=93.5

Prompt: # growth lookup, item NC(=O)[C@@H]1Cc2ccccc2CN1C(=O)c1ccc2c(c1)Cc1ccccc1-2
Response: 64.9

Prompt: # growth lookup, item COc1cccc(/C=C/C(=O)/C=C(/C=C/c2cccc(OC)c2OC)OB(F)F)c1OC
Response: 88.7

Prompt: # growth lookup, item Brc1ccc(-c2nn(-c3ccccc3)cc2-c2nn[nH]n2)s1
Response: 93.9

Prompt: # growth lookup, item N#CC1=C(N)Oc2c(ccc3ccccc23)C1c1cc2ccccc2n2nnnc12 (stereo not drawn)
Response: 33.4

Prompt: # growth lookup, item COc1ccc(C2=NN(C=O)C(c3ccc(Oc4nc5c(c(=O)n(C)c(=O)n5C)n4C)c(OC)c3)C2)cc1 (stereo not drawn)
Response: 56.6

Prompt: # growth lookup, item O=C(/C=C/c1ccc([N+](=O)[O-])cc1)c1cccc(Nc2nc(Nc3ccccc3)nc(Nc3ccccc3)n2)c1
Response: 72.7

Prompt: # growth lookup, item CN1CCN(Cc2ccc(NC(=O)c3cncc(C#Cc4cnc(N)c5ccc(C#N)cc45)c3)cc2C(F)(F)F)CC1
Response: -53

Prompt: # growth lookup, item CO[C@H]1CC(c2ccc[nH]2)=N[C@]12O[C@@H](C)C[C@@H]1CCCCCCCc3ccc([nH]3)[C@H]12
Response: 11.2

Prompt: # growth lookup, item Cc1cc2c(C(C)C)c(O)c(O)c(/C=N/O)c2c(O)c1-c1c(C)cc2c(C(C)C)c(O)c(O)c(/C=N/O)c2c1O
Response: 4.66

Prompt: # growth lookup, item CC(C)(C)n1cc(-c2ccnc(NCCNS(=O)(=O)c3cccc4ccccc34)c2)c(-c2cccc(O)c2)n1
Response: 62.7

Prompt: # growth lookup, item Cc1cc(N2CCOCC2)nc(N(CCCNc2ccnc3cc(Cl)ccc23)Cc2ccc3c(c2)OCO3)n1
Response: 2.51

Prompt: # growth lookup, item O=C(O)COc1ccc(F)cc1
Response: 99.6

Prompt: # growth lookup, item COC(=O)c1nc(-c2ccccc2)oc1S(=O)(=O)NCC(c1ccc(Cl)cc1)N1CCCCC1 (stereo not drawn)
Response: 85.3

Prompt: # growth lookup, item CCOC(=O)C#Cc1c(CC(=O)OCC)nnn1[C@H]1O[C@@H](CO)[C@@H]2OC(C)(C)O[C@@H]21
Response: 75.9

Prompt: # growth lookup, item CCCCCCC/C=N/NC(=O)c1ccc(-n2cc(-c3ccccc3)nn2)cc1
Response: 96
